biological target: FGFR3 (UniProt P22607); assay: phosphorylation enrichment, bacterial display (enrichment ratio); higher = better substrate or ligand; peptides without Tyr show the background;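 also: 11-residue human phosphosite peptides and single-mutation variants displayed on the E. coli surface, counted by deep sequencing, each peptide's frequency after selection divided by its frequency in the unselected input library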;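 also: frequency after pTyr selection over input frequency; kinase dosed for 20-30% of maximal phosphorylation in three min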
Sequence (P22607 whole entry, looked up): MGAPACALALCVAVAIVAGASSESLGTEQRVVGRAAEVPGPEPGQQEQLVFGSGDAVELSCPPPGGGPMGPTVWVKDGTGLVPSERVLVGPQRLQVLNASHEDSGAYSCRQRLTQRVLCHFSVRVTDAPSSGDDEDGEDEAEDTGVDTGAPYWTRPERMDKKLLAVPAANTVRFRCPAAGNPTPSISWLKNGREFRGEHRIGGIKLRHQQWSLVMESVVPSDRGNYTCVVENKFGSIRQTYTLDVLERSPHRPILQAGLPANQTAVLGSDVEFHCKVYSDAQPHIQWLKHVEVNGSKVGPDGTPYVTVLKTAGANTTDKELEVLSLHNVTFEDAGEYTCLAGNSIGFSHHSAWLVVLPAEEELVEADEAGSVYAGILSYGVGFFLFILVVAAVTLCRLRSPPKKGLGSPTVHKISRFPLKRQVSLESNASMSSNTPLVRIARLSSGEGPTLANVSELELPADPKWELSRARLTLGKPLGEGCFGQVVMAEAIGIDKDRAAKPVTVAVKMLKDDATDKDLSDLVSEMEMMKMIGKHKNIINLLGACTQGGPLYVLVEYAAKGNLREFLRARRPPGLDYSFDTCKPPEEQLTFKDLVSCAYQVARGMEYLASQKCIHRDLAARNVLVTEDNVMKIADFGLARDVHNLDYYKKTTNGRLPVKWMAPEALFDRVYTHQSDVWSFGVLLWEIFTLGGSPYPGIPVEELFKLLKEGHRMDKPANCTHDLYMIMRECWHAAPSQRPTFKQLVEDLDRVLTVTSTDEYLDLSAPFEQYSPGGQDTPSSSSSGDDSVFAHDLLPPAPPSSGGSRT
I'd be grateful if you could share measured phosphorylation enrichment for these entries.
# output: bare number, no unit

Field request: phosphorylation enrichment | item: VEGISYDFIPT [CBS_Y308_G307S] 0.941

Moving on to the next sequence: ENEGTYVCIAT [ADAMTSL3_Y1365] 1.45

Moving on to the next sequence: RRIEKYVDQGK [IRAK3_Y61_H57R] 0.416

Moving on to the next sequence: GLAKGYIDPET [CSNK1G2_Y195_E194G] 0.48

Moving on to the next sequence: AEFGLYRAMVR [VSX2_Y222_G223R_YF] 0.673

Moving on to the next sequence: MCDSHYLESRS [CLK1_Y56] 0.718

Moving on to the next sequence: EADRKYEEVAC [TPM3_Y163_R168C] 0.777

Moving on to the next sequence: LTNDRYVATLT [IL6ST_Y396_L397V] 0.82

Moving on to the next sequence: IVAREYYSDAD [CAMK2A_Y106_E109D] 0.633

Moving on to the next sequence: WAMLAYNRSKL [WWOX_Y293] 0.611

Moving on to the next sequence: LCRYGYANTSE [SI_Y1233] 1.36

Moving on to the next sequence: FRTGHYLCNAC [GATA1_Y223_D218Y_YF] 0.625

Moving on to the next sequence: DLSEVYKPCRK [CCDC93_Y176_R179C] 0.668

Moving on to the next sequence: VKANTYEKYWP [GATM_Y100] 0.471

Moving on to the next sequence: TLKVGYKEKQR [EPHA3_Y659_T660K] 0.555

Moving on to the next sequence: EVVGKYSVHNA [MLH1_Y183_R182K] 0.449

Moving on to the next sequence: WHHIFYNELRV [ACTG1_Y91_T89I] 0.911

Moving on to the next sequence: TLDTDYQMTKR [ADA_Y308] 0.584

Moving on to the next sequence: IRKKFYRAILE [CHD7_Y1218_Q1214R_YF] 0.444

Moving on to the next sequence: EFGRRYGFSCQ [CCDC93_Y209_R213C_YF] 0.62

Moving on to the next sequence: GDNNIYVTKII [DLG1_Y349_S347N] 0.61

Moving on to the next sequence: QAPPVYLDVLG [NTRK1_Y791] 1.49

Moving on to the next sequence: LSGVIYVILWK [PMP22_Y153_R157W] 0.652

Moving on to the next sequence: PSFSEYASVQV [SIRPA_Y496] 1.05

Moving on to the next sequence: FQLENCCNGGG [INS_Y108_Y108C_YF] 0.523

Moving on to the next sequence: YQLPYYNTVPS [BMPR1A_Y458_M460T] 3.69

Moving on to the next sequence: PVRIAYDRPRG [SUGP2_Y985] 0.653

Moving on to the next sequence: EGDGVYTLNDE [HP_Y125_N129D] 0.838

Moving on to the next sequence: AVHPGYGFLSE [PCCA_Y143] 1.12

Moving on to the next sequence: KMATAYIRRMS [BCO1_Y264] 0.431

Moving on to the next sequence: AGADGYGYLAP [FOXL2_Y186] 0.457

Moving on to the next sequence: FSGKAYADEER [CRIM1_Y826] 0.566

Moving on to the next sequence: LLREWYMIISR [HUWE1_Y4066] 1.1

Moving on to the next sequence: TWSSSYRSDRL [CRYBB1_Y131] 0.389

Moving on to the next sequence: PADQAYSWFQH [NDST1_Y711_R709Q_YF] 4.33

Moving on to the next sequence: PVDGEYFTLQI [TP53_Y327_L323V] 9.07

Moving on to the next sequence: DVCKNYAKAKD [ALB_Y343_E345K] 0.498

Moving on to the next sequence: CTTIHYIYMCN [TP53_Y234_N235I] 0.548

Moving on to the next sequence: VLSIDYFFPPQ [AR_Y552_P549S_YF] 10.5

Moving on to the next sequence: MKKMHYVDPDH [ST3GAL5_Y99] 0.357

Moving on to the next sequence: GFRPVYSEDEQ [CHST6_Y362_YF] 0.835

Moving on to the next sequence: LRWREYQRQDY [PRKRIP1_Y90_R87W] 0.585

Moving on to the next sequence: LSKDLYLISQM [LARP4_Y141] 1.41

Moving on to the next sequence: SLEKGYELPDG [ACTC1_Y242_S241G] 0.545

Moving on to the next sequence: PFFASYPPSPD [GDAP2_Y491_T489A_YF] 0.839

Moving on to the next sequence: CERFSYFGMKA [SLC15A2_Y60_YF] 0.938

Moving on to the next sequence: HIKHNYECLVF [XRCC5_Y416_YF] 1.09

Moving on to the next sequence: SMVVPYEPPEV [TP53_Y220_V216M] 0.81

Moving on to the next sequence: PLDGEYFTLQV [TP53_Y327_I332V] 10.6

Moving on to the next sequence: RLLRGYNQSAF [HLA-C_Y137_D138N_YF] 0.547

Moving on to the next sequence: DTNIAYCLHPR [POMT1_Y581_W582C] 0.691

Moving on to the next sequence: QEIATYRRLRE [KRT17_Y384_L388R] 0.933

Moving on to the next sequence: EKLIQYCQSKS [AKR1B1_Y199_G204S] 0.642

Moving on to the next sequence: ALKKPYSVLFK [RPF2_Y59_G60S_YF] 0.617

Moving on to the next sequence: SPGGDYAAMGA [ERBB3_Y1276_G1271S] 0.609

Moving on to the next sequence: RKKEEYKMALF [F8_Y1990_YF] 0.607

Moving on to the next sequence: ANLAKYGNPNE [BCHE_Y505_F502L] 0.65
